- Test system: SARS-CoV-2 (hCoV-19/Taiwan/4/2020)
- TEST: microbe, parasite or virus in culture
- Format: cell-based
- CONDITION: Severe acute respiratory syndrome coronavirus 2, Vero C1008, 120 h; […]; N.I. = no inhibition; dash = cytotoxicity was observed; read-out: CPE (μM) D5
REPORTED_METRIC: minimal effective concentration
// unit must come after the numeric part

Answered examples (2):
# COMPOUND_STRUCTURE_STRING, TARGET_OF_ASSAY, MEASURED_VALUE
measured = [
    ("CC[C@H]1CN2CCc3cc(OC)c(OC)cc3[C@@H]2C[C@@H]1C[C@H]1NCCc2cc(OC)c(OC)cc21", "SARS-CoV-2 (hCoV-19/Taiwan/4/2020)", "10 µM"),
    ("CO[C@@H]1[C@@H](OC)[C@H](C)[C@@](O)(CC(=O)O)O[C@H]1[C@H](C)[C@H]1O[C@@]2(CC[C@@](C)([C@H]3CC[C@@](C)([C@@H]4O[C@@H]([C@H]5O[C@](C)(O)[C@H](C)C[C@@H]5C)C[C@@H]4O[C@@H]4C[C@H](OC)[C@@H](OC)[C@H](C)O4)O3)O2)C[C@H](O)[C@H]1C", "SARS-CoV-2 (hCoV-19/Taiwan/4/2020)", "0.117 µM"),
]

Shifting focus to the compound that follows.
Lab book: minimal effective concentration of `CC[C@@]1([C@@H]2O[C@@H]([C@H]3O[C@@](O)(CO)[C@H](C)C[C@@H]3C)C[C@@H]2C)CC[C@H]([C@]2(C)CC[C@]3(C[C@H](O)[C@@H](C)[C@@H]([C@@H](C)[C@@H](OC)[C@H](C)C(=O)O)O3)O2)O1` noted as 2.5 µM

* * *

- Test system: SARS-CoV-2 (hCoV-19/Taiwan/4/2020)
- TEST: microbe, parasite or virus in culture
- Type: cell-based
- CONDITION: Severe acute respiratory syndrome coronavirus 2, Vero C1008; minimal dose that showed antiinfective effect after virus challenge, incubation 120 h (D5), Vero E6; N.I. = no inhibition; dash = cytotoxicity was observed; read-out: CPE (μM) D5
Provide the reported minimal effective concentration of each item.
One number for each entry, in µM.

# MOLECULE, minimal effective concentration / µM
records = [
    ("OC(c1cc(C(F)(F)F)nc2c(C(F)(F)F)cccc12)C1CCCCN1 (stereo not drawn)", 10),
    ("CO/N=C1\\C[C@]2(C[C@@H]3C[C@@H](C/C=C(\\C)C[C@@H](C)/C=C/C=C4\\CO[C@@H]5[C@H](O)C(C)=C[C@@H](C(=O)O3)[C@]45O)O2)O[C@H](/C(C)=C/C(C)C)[C@H]1C", 10),
    ("Nc1nc2nc[nH]c2c(=S)[nH]1", 2.5),
    ("Cc1c(O)cccc1C(=O)N[C@@H](CSc1ccccc1)[C@H](O)CN1C[C@H]2CCCC[C@H]2C[C@H]1C(=O)NC(C)(C)C", 10),
    ("OC1(c2ccc(Cl)c(C(F)(F)F)c2)CCN(CCCC(c2ccc(F)cc2)c2ccc(F)cc2)CC1", 10),
]

Shifting focus to the molecule that follows.
Lab book: minimal effective concentration of CC(C)(C)NC(=O)N[C@H](C(=O)N1C[C@H]2[C@@H]([C@H]1C(=O)NC(CC1CCC1)C(=O)C(N)=O)C2(C)C)C(C)(C)C (stereo partly drawn) noted as 10

* * *

- Tested on: SARS-CoV-2
- TEST: Quantification of SARS-CoV-2 via antibody staining (viral NP protein) in Vero E6 cells
- Type: cell-based
- CONDITION: Severe acute respiratory syndrome coronavirus 2, Vero C1008, 100 PFU of SARS-CoV-2 (multiplicity of infection 0.025) in Vero E6 cells; viral titer by antinucleocapsid antibody
Provide the reported pIC50 of each item.
Answers are plain numbers, as −log10 of the molar value.

Answered examples (8):
# COMPOUND, pIC50
data = [
    ("COc1ccc2cc1Oc1ccc(cc1)C[C@H]1c3c(cc4c(c3Oc3cc5c(cc3OC)CCN(C)[C@@H]5C2)OCO4)CCN1C [Cepharanthine 4, Cepharanthine]", 5.55),
    ("CO[C@@H]1[C@@H](OC)[C@H](C)[C@@](O)(CC(=O)O)O[C@H]1[C@H](C)[C@H]1O[C@@]2(CC[C@@](C)([C@H]3CC[C@@](C)([C@@H]4O[C@@H]([C@H]5O[C@](C)(O)[C@H](C)C[C@@H]5C)C[C@@H]4O[C@@H]4C[C@H](OC)[C@@H](OC)[C@H](C)O4)O3)O2)C[C@H](O)[C@H]1C [Maduramicin 15, Maduramicin]", 5.88),
    ("CC[C@@H](C(=O)[C@@H](C)[C@@H](O)[C@H](C)[C@@H]1O[C@@H]([C@@H](CC)C(=O)O)CC[C@@H]1C)[C@H]1O[C@]2(C=C[C@@H](O)[C@]3(CC[C@@](C)([C@H]4CC[C@](O)(CC)[C@H](C)O4)O3)O2)[C@H](C)C[C@@H]1C [Salinomycin 13, Salinomycin]", 9.32),
    ("Nc1nc2nc[nH]c2c(=S)[nH]1 [Thioguanine 3, Thioguanine]", 5.78),
    ("CO/N=C1\\C[C@]2(C[C@@H]3C[C@@H](C/C=C(\\C)C[C@@H](C)/C=C/C=C4\\CO[C@@H]5[C@H](O)C(C)=C[C@@H](C(=O)O3)[C@]45O)O2)O[C@H](/C(C)=C/C(C)C)[C@H]1C [Moxidectin 7, Moxidectin]", 5.50),
    ("CC[C@H]1CN2CCc3cc(OC)c(OC)cc3[C@@H]2C[C@@H]1C[C@H]1NCCc2cc(OC)c(OC)cc21 [Emetine 5, Emetine]", 9.40),
    ("OC1(c2ccc(Cl)c(C(F)(F)F)c2)CCN(CCCC(c2ccc(F)cc2)c2ccc(F)cc2)CC1 [Penfluridol 11, Penfluridol]", 5.62),
    ("Cc1c(O)cccc1C(=O)N[C@@H](CSc1ccccc1)[C@H](O)CN1C[C@H]2CCCC[C@H]2C[C@H]1C(=O)NC(C)(C)C [Nelfinavir 1, Nelfinavir]", 5.48),
]

Shifting focus to the compound that follows.
Lab book: pIC50 of CC(C)(C)c1cc(C(C)(C)C)c(NC(=O)c2c[nH]c3ccccc3c2=O)cc1O [Ivacaftor 9, Ivacaftor] noted as 5.43

* * *

- System: SARS-CoV-2
- TEST: Quantification of SARS-CoV-2 via antibody staining (viral NP protein) in Vero E6 cells
- Format: cell-based
- CONDITION: Severe acute respiratory syndrome coronavirus 2, Vero C1008, 100 PFU of SARS-CoV-2 (multiplicity of infection 0.025) in Vero E6 cells; viral titer by antinucleocapsid antibody
Provide the reported IC50 of each item.
Answers are plain numbers, in µM.

Answered examples (2):
# COMPOUND, TARGET_OF_ASSAY, IC50 / µM
data = [
    ("CC1=C(C(=O)OC(C)C)C(c2cccc([N+](=O)[O-])c2)C(C(=O)OC2CN(C(c3ccccc3)c3ccccc3)C2)=C(N)N1 (centres unmarked)", "SARS-CoV-2", 5.29),
    ("CC[C@@]1([C@@H]2O[C@@H]([C@H]3O[C@@](O)(CO)[C@H](C)C[C@@H]3C)C[C@@H]2C)CC[C@H]([C@]2(C)CC[C@]3(C[C@H](O)[C@@H](C)[C@@H]([C@@H](C)[C@@H](OC)[C@H](C)C(=O)O)O3)O2)O1", "SARS-CoV-2", 6.38),
]

// for each compound in input: emit IC50
1. CCCCc1oc2ccc(NS(C)(=O)=O)cc2c1C(=O)c1ccc(OCCCN(CCCC)CCCC)cc1
2. CC[C@H](C)[C@H]1O[C@]2(CC[C@@H]1C)C[C@@H]1C[C@@H](C/C=C(\C)[C@@H](O[C@H]3C[C@H](OC)[C@@H](O[C@H]4C[C@H](OC)[C@@H](O)[C@H](C)O4)[C@H](C)O3)[C@@H](C)/C=C/C=C3\CO[C@@H]4[C@H](O)C(C)=C[C@@H](C(=O)O1)[C@]34O)O2

## Result
1. 4.51
2. 4.1

Lab book: IC50 of OC(c1cc(C(F)(F)F)nc2c(C(F)(F)F)cccc12)C1CCCCN1 (centres unmarked) noted as 3.24
